// provenance: patent US20260008787A1

Parameter IC50: see the listing below.
system: AGS (G12D); assay: Cell proliferation assay (CellTiter-Glo, 72 hours), AGS; assay type: cell-based; conditions: 72 h, 384-well, CellTiter-Glo 2.0
Answer format: numeric, nM implied, no suffix.

For the compound C#Cc1c(F)ccc2cc(O)cc(-c3nc4c5c(nc(OC[C@@]67CCCN6C[C@H](F)C7)nc5c3F)N(C)[C@@H](C3CC3)CO4)c12 , report IC50. 623

For the compound C#Cc1c(F)ccc2cc(O)cc(-c3nc4c5c(nc(OC[C@@]67CCCN6C[C@H](F)C7)nc5c3F)N3C[C@](C)(O)CC[C@H]3CO4)c12 , report IC50. 97.3

For the compound C#Cc1c(F)ccc2cc(O)cc(-c3nc4c5c(nc(OC[C@@]67CCCN6C[C@H](F)C7)nc5c3F)N(C)[C@H](CO)CO4)c12 , report IC50. 923

For the compound CC[C@H]1COc2nc(-c3cc(O)cc4ccc(F)c(F)c34)c(F)c3nc(OC[C@@]45CCCN4C[C@H](F)C5)nc(c23)N1C , report IC50. 352

###

tested on: H23 (KRAS G12C); experiment: Cell proliferation assay Method B (5 days), H23; assay type: cell-based; settings: 120 h, 96-well, read-out: Anti-Cell Proliferation IC50 (nM), H23
Parameter IC50: see the listing below.
Answer format: value, then unit.

>>> recorded_result("CCc1c(F)ccc2cc(O)cc(-c3nc4c5c(nc(OC[C@@]67CCCN6C[C@H](F)C7)nc5c3F)N3CCCC[C@H]3CO4)c12")
"145 nM"

Consider now this further molecule.
For the molecule C#Cc1c(F)ccc2cc(O)cc(-c3nc4c5c(nc(OC[C@@]67CCCN6C[C@H](F)C7)nc5c3F)N3CCCC[C@H]3CO4)c12 , report IC50. 47.4 nM

###

system: AGS (G12D); experiment: Cell proliferation assay (CellTiter-Glo, 72 hours), AGS; format: cell-based; settings: 72 h, 384-well, CellTiter-Glo 2.0
Consider the following partition of reported IC50 into named classes: L (below 200 nM), M (200 nM to below 800 nM), H (800 nM or more)

>>> class_assignment("CCc1c(F)ccc2cc(O)cc(-c3nc4c5c(nc(OC[C@@]67CCCN6C[C@H](F)C7)nc5c3F)N[C@H](CO)CO4)c12")
"H"
>>> class_assignment("C#Cc1c(F)ccc2cc(O)cc(-c3nc4c5c(nc(OC[C@@]67CCC[N+]6(C)C[C@H](F)C7)nc5c3F)N[C@@H](C)CO4)c12 (some centres unmarked)")
"H"
>>> class_assignment("C#Cc1c(F)ccc2cc(O)cc(-c3nc4c5c(nc(OC[C@@]67CCCN6C[C@H](F)C7)nc5c3F)N[C@@H](C)CO4)c12")
"L"
>>> class_assignment("C#Cc1c(F)ccc2cc(O)cc(-c3nc4c5c(nc(OC[C@@]67CCCN6C[C@H](F)C7)nc5c3F)N3CCCC(O4)C3CO)c12 (some centres unmarked)")
"M"

For C#Cc1c(F)ccc2cc(O)cc(-c3nc4c5c(nc(OC[C@@]67CCCN6C[C@H](F)C7)nc5c3F)N[C@@H](CC)CO4)c12 , which IC50 bin applies? M

For C#Cc1c(F)ccc2cc(O)cc(-c3nc4c5c(nc(OC[C@@]67CCCN6C[C@H](F)C7)nc5c3F)N(Cc3ccccc3)CCC4)c12 , which IC50 bin applies? H

For C#Cc1c(F)ccc2cc(O)cc(-c3nc4c5c(nc(OC[C@@]67CCCN6C[C@H](F)C7)nc5c3F)N(C)[C@@H](CO)CO4)c12 , which IC50 bin applies? H

For C#Cc1c(F)ccc2cc(O)cc(-c3nc4c5c(nc(OC[C@@]67CCCN6C[C@H](F)C7)nc5c3F)NC3(CC3)CO4)c12 , which IC50 bin applies? H

For C#Cc1c(F)ccc2cc(O)cc(-c3nc4c5c(nc(OC[C@@]67CCCN6C[C@H](F)C7)nc5c3F)N3CCC[C@H](O)[C@@H]3CO4)c12 , which IC50 bin applies? H

For CCc1c(F)ccc2cc(O)cc(-c3nc4c5c(nc(OC[C@@]67CCCN6C[C@H](F)C7)nc5c3F)N[C@@H](C3CC3)CO4)c12 , which IC50 bin applies? H

For C#Cc1c(F)ccc2cc(O)cc(-c3nc4c5c(nc(OC[C@@]67CCCN6C[C@H](F)C7)nc5c3F)N3CCC[C@@H](O)[C@H]3CO4)c12 , which IC50 bin applies? L

For CCc1c(F)ccc2cc(O)cc(-c3nc4c5c(nc(OC[C@@]67CCCN6C[C@H](F)C7)nc5c3F)N(C)[C@H](CO)CO4)c12 , which IC50 bin applies? M

For C#Cc1c(F)ccc2cc(O)cc(-c3nc4c5c(nc(OC[C@@]67CCCN6C[C@H](F)C7)nc5c3F)N3CCCCC3CC4)c12 (some centres unmarked) , which IC50 bin applies? L

For CC[C@H]1COc2nc(-c3cc(O)cc4ccc(F)c(Cl)c34)c(F)c3nc(OC[C@@]45CCCN4C[C@H](F)C5)nc(c23)N1C , which IC50 bin applies? M

For C#Cc1c(F)ccc2cc(O)cc(-c3nc4c5c(nc(OC[C@@]67CCCN6C[C@H](F)C7)nc5c3F)N3CC(C(N)=O)CCC3CO4)c12 (some centres unmarked) , which IC50 bin applies? H

For C#Cc1c(F)ccc2cc(O)cc(-c3nc4c5c(nc(OCC67CCCN6C/C(=C/F)C7)nc5c3F)N3CCCC[C@H]3CO4)c12 (some centres unmarked) , which IC50 bin applies? L

###

target: KRAS G12V (Homo sapiens, UniProt P01116, G12V); test: biochemical
Sequence (P01116 1-188 isoform P01116-2 G12V): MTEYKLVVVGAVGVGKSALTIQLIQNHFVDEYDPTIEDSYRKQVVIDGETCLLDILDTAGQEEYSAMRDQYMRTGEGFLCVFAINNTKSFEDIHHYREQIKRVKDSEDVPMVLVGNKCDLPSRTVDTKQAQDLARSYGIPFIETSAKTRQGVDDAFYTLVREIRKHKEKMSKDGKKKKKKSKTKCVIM
observation.type: log10 of IC50 (log10 of the value in nM)
Use the decimal logarithm of IC50 (nM).

>>> recorded_result("C#Cc1c(F)ccc2cc(O)cc(-c3nc4c5c(nc(OC[C@@]67CCCN6C[C@H](F)C7)nc5c3F)N[C@@H](C3CCCO3)CO4)c12 (some centres unmarked)")
1.48
>>> recorded_result("CC[C@H]1COc2nc(-c3cccc4sc(N)c(C#N)c34)c(F)c3nc(OC[C@@]45CCCN4C[C@H](F)C5)nc(c23)N1C")
0.81
>>> recorded_result("Fc1c(-c2c(Cl)ccc3[nH]ncc23)nc2c3c(nc(OC[C@@]45CCCN4C[C@H](F)C5)nc13)N1CCCC[C@H]1CO2")
1.72

For the molecule C#Cc1c(F)ccc2cc(O)cc(-c3nc4c5c(nc(OC[C@@]67CCCN6C[C@H](F)C7)nc5c3F)N3CC(C#N)CCC3CO4)c12 (some centres unmarked) , report log10 of IC50. 1.43

For the molecule C#Cc1c(F)ccc2cc(O)cc(-c3nc4c5c(nc(OC[C@@]67CCCN6C[C@H](F)C7)nc5c3F)N3CCC[C@@H](O)[C@H]3CO4)c12 , report log10 of IC50. 0.33

###

Parameter IC50: see the listing below.
molecular target: KRAS G12V (Homo sapiens, UniProt P01116, G12V); assay: biochemical
Answer format: numeric, nM implied, no suffix.

Example results:
>>> recorded_result("C#Cc1c(F)ccc2cc(O)cc(-c3nc4c5c(nc(OC[C@@]67CCCN6C[C@H](F)C7)nc5c3F)N3C[C@H](C#N)CC[C@H]3CO4)c12")
58.9
>>> recorded_result("Cc1cc(N)nc(-c2nc3c4c(nc(OC[C@@]56CCCN5C[C@H](F)C6)nc4c2F)N2CCCC[C@H]2CO3)c1C(F)(F)F")
12.7
>>> recorded_result("Fc1c(-c2c(Cl)ccc3[nH]nc(Cl)c23)nc2c3c(nc(OC[C@@]45CCCN4C[C@H](F)C5)nc13)N1CCCC[C@H]1CO2 (atropisomer, axis not shown) [Example 84]")
48

For the compound C#Cc1c(F)ccc2cc(O)cc(-c3cc4c5c(nc(OC[C@@]67CCCN6C[C@H](F)C7)nc5c3F)N3CCCC[C@H]3CO4)c12 , report IC50. 2.33

For the compound C#Cc1c(F)ccc2cc(F)cc(-c3nc4c5c(nc(OC[C@@]67CCCN6C[C@H](F)C7)nc5c3F)N3CCCC[C@H]3CO4)c12 , report IC50. 4.2

For the compound CCc1c(F)ccc2cc(O)cc(-c3nc4c5c(nc(OC[C@@]67CCCN6C[C@H](F)C7)nc5c3F)N3CCCC[C@H]3C(C)O4)c12 (stereo partly drawn) , report IC50. 1.6
